Biological target: T1, ZFP SBS#1139 (synthetic)
T1 chain: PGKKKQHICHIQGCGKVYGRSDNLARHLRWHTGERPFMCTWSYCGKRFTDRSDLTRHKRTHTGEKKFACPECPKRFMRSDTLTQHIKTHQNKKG
Test: EMSA
Settings: tags: MBP fusion
measuredEndpoint: Kd (nM)
Answer format: numeric, nM implied, no suffix.

Q: # get_value(readout='Kd', item= ACGGCCGAG (dsDNA) DNA 1: ACGGCCGAG DNA 2: CTCGGCCGT )
Result: 0.535

Source: patent US20030068675
